study.target: Env of HIV-1 strain 3415.v1.c1 (HIV-1)
assay: cell-based or functional assay
Reported neutralization IC50 values for a set of binders
attribute.measured: neutralization IC50

1. γ23κ18 (antibody, V domains shown) VH: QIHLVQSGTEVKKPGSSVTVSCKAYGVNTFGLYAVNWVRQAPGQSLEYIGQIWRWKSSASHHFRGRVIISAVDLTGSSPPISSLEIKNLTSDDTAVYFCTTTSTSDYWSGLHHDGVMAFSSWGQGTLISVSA VL: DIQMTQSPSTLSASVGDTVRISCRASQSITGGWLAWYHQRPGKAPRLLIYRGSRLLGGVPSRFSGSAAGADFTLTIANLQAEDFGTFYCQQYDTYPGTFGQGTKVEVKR	> 15 µg/mL
2. γ20κ19 (antibody, V domains shown) VH: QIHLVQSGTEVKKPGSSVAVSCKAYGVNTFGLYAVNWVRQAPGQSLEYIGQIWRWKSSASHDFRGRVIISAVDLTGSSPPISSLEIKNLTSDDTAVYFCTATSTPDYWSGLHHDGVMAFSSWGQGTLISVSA VL: DIQMTQSPSTLSASVGDTVRISCRASQSITGGWLAWYHQRPGKAPRLLIYRGSRLLGGVPSRFSGSAAGTGFTLTIANLQAEDFGTFYCQQYDTYPGTFGQGTKVEVKR	> 15 µg/mL
3. γ20κ3 (antibody, V domains shown) VH: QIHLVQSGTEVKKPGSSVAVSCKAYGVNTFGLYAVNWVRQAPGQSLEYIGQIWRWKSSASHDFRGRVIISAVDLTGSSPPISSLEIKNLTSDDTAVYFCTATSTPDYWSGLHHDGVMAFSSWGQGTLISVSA VL: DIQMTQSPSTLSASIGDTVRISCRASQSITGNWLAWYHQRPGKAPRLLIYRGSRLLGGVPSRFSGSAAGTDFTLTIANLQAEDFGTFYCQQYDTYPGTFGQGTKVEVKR	> 15 µg/mL
